Origin of values: patent US20210032312A1

biological target: T1, human CD8 alpha (CD8A) on primary human CD8+ T cells (human, UniProt P01732 22-235); experiment: flow cytometry, human CD8+ T cells, 0.2 uM FN3
T1 construct: whole, on cells; also called hCD8A
T1 sequence (P01732 22-235): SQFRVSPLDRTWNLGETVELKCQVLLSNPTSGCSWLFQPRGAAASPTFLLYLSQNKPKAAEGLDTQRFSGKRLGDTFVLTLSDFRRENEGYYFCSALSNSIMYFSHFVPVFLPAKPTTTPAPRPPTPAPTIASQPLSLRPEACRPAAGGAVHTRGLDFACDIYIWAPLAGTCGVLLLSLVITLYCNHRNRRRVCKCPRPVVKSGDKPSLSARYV
Overview of recorded Human T-cell Binding 0.2 uM (MFI) for various binders
Express it in MFI; write the number only.

// known answers, use as guide
# binder, unit-name, value
records = [
    ("P283AR9P1362_G3 (designed binder, FN3 domain) LPAPKNLVVSRVTEDSARLSWVKRATSFDSFLIQYQESEKVGEAIVLTVPGSERSYDLTGLKPGTEYTVSIYGVDVKWEGNRPVASNPLSAIFTT", "MFI", 4310),
    ("P282BR9P1357_D2 (designed binder, FN3 domain) LPAPKNLVVSRVTEDSARLSWIKDGHPRHFDSFLIQYQESEKVGEAIVLTVPGSERSYDLTGLKPGTEYTVSIYGVDVVYDRGQLISSNPLSAIFTT", "MFI", 1570),
]

Which Human T-cell Binding 0.2 uM (MFI) reading was recorded for the binder P282DR9P1359_F6 (designed binder, FN3 domain) LPAPKNLVVSRVTEDSARLSWTAPDAAFDSFDIAYPEWPTTGEAIVLTVPGSERSYDLTGLKPGTEYFVVIWGVKGGDHSAPLSAIFTT ?
3780

Which Human T-cell Binding 0.2 uM (MFI) reading was recorded for the binder P282FR9P1361_F2 (designed binder, FN3 domain) LPAPKNLVVSRVTEDSARLSWTAPDAAFDSFDIWYAEYGYPGEAIVLTVPGSERSYDLTGLKPGTEYDVAISGIKGGPRSYPLSAIFTT ?
498

Which Human T-cell Binding 0.2 uM (MFI) reading was recorded for the binder P282FR9P1361_G9 (designed binder, FN3 domain) LPAPKNLVVSRVTEDSARLSWTAPDAAFDSFGITYWESPYAGEAIVLTVPGSERSYDLTGLKPGTEYGVFILGVKGGYPSAPLSAIFTT ?
297

Which Human T-cell Binding 0.2 uM (MFI) reading was recorded for the binder P283AR9P1362_B8 (designed binder, FN3 domain) LPAPKNLVVSRVTEDSARLSWWTSPLPFDSFLIQYQESEKVGEAIVLTVPGSERSYDLTGLKPGTEYTVSIYGVDVKYDIDSRPISSNPLSAIFTT ?
1580

Which Human T-cell Binding 0.2 uM (MFI) reading was recorded for the binder P282CR9P1358_F5 (designed binder, FN3 domain) LPAPKNLVVSRVTEDSARLSWTAPDAAFDSFWISYPEWPPDGEAIVLTVPGSERSYDLTGLKPGTEYFVIIWGVKGGETSAPLSAIFTT ?
3070

Which Human T-cell Binding 0.2 uM (MFI) reading was recorded for the binder P282AR9P1356_B9 (designed binder, FN3 domain) LPAPKNLVVSRVTEDSARLSWPEGDRPFFDSFLIQYQESEKVGEAIVLTVPGSERSYDLTGLKPGTEYTVSIYGVDVKWEGNRPVASNPLSAIFTT ?
3670

Which Human T-cell Binding 0.2 uM (MFI) reading was recorded for the binder P282FR9P1361_H5 (designed binder, FN3 domain) LPAPKNLVVSRVTEDSARLSWTAPDAAFDSFDIWYAEYGYPGEAIVLTVPGSERSYDLTGLKPGTEYDVAISGVKGGPRSYPLSAIFTT ?
698

Which Human T-cell Binding 0.2 uM (MFI) reading was recorded for the binder P282BR9P1357_A9 (designed binder, FN3 domain) LPAPKNLVVSRVTEDSARLSWKANRTTDLHFDSFLIQYQESEKVGEAIVLTVPGSERSYDLTGLKPGTEYTVSIYGVDVQYDGQQPLYSNPLSAIFTT ?
1070

Which Human T-cell Binding 0.2 uM (MFI) reading was recorded for the binder P282BR9P1357_C10 (designed binder, FN3 domain) LPAPKNLVVSRVTEDSARLSWWSNDNRPIFDSFLIQYQESEKVGEAIVLTVPGSERSYDLTGLKPGTEYTVSIYGVDVKWEGNRPVASNPLSAIFTT ?
2900

Which Human T-cell Binding 0.2 uM (MFI) reading was recorded for the binder P282DR9P1359_C5 (designed binder, FN3 domain) LPAPKNLVVSRVTEDSARLSWTAPDAAFDSFWITYPEWPDPGGEAIVLTVPGSERSYDLTGLKPGTEYFVVIYGVKGGEIYSPLSAIFTT ?
5550

Which Human T-cell Binding 0.2 uM (MFI) reading was recorded for the binder P282DR9P1359_C12 (designed binder, FN3 domain) LPAPKNLVVSRVTEDSARLSWTAPDAAFDSFYISYPEWPVPGEAIVLTVPGSERSYDLTGLKPGTEYWVVIYGVKGGALSVPLSAIFTT ?
944

Which Human T-cell Binding 0.2 uM (MFI) reading was recorded for the binder P283AR9P1362_D6 (designed binder, FN3 domain) LPAPKNLVVSRVTEDSARLSWAKRPGAFDSFLIQYQESEKVGEAIVLTVPGSERSYDLTGLKPGTEYTVSIYGVDVKYDIDSRPISSNPLSAIFTT ?
3660

Which Human T-cell Binding 0.2 uM (MFI) reading was recorded for the binder P282DR9P1359_E6 (designed binder, FN3 domain) LPAPKNLVVSRVTEDSARLSWTAPDAAFDSFWIAYPEWPVQGEAIVLTVPGSERSYDLTGLKPGTEYFVVIQGVKGGTPSWPLSAIFTT ?
1260

Which Human T-cell Binding 0.2 uM (MFI) reading was recorded for the binder P282ER9P1360_A9 (designed binder, FN3 domain) LPAPKNLVVSRVTEDSARLSWTAPDAAFDSFGILYYEPVDSGEAITLPIPGSERSYDLTGLKPGTEYWVVITGVKGGAPSTPLGAIFTT ?
5340

Which Human T-cell Binding 0.2 uM (MFI) reading was recorded for the binder P283AR9P1362_D7 (designed binder, FN3 domain) LPAPKNLVVSRVTEDSARLSWVKRATSFDSFLIQYQESEKVGEAIVLTVPGSERSYDLTGLKPGTEYTVSIYGVDVKYDIDSRPISSNPLSAIFTT ?
3350
